Subject Of Test: human adenosine A3 receptor (Homo sapiens, UniProt P0DMS8)
Measurement Notes: Radioligand competition association assay with [3H]34
Type: binding
Protocol Conditions: read-out: RT (residence time)
Quantity: residence time (min)

P. COc1ccn2c(c1)nc1c2c(=O)n(CC2CC2)c(=O)n1Cc1ccc(Cl)cc1
Q. COc1ccn2c(c1)nc1c2c(=O)n(CC2CC2)c(=O)n1Cc1ccccc1
INPUT: Higher residence time: P or Q ? Lab log: write the label of the selected item as the result.
OUTPUT: Q

* * *

Subject Of Test: human adenosine A3 receptor (Homo sapiens, UniProt P0DMS8)
Sequence (P0DMS8 1-318): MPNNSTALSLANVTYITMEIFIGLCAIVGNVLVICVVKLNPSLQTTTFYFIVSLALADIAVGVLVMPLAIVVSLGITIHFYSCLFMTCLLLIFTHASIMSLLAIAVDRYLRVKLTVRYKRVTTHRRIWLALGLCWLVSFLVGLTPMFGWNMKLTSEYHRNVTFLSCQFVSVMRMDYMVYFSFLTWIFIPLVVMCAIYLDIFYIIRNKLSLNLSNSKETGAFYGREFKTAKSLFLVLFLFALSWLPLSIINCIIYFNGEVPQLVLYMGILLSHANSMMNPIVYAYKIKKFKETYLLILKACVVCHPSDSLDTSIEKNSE
Measurement Notes: Radioligand displacement assay with [3H]34
Assay type: binding
Protocol Conditions: 25 °C, [3H]34, hA3R stably expressed on CHO cell membranes, n ≥ 3
Quantity: pKi ± SEM

{"columns": ["Compound Structure", "Subject Of Test", "pKi ± SEM"],
 "data": [
  ["COCCn1c(=O)c2c(nc3cc(OC)ccn32)n(Cc2ccccc2)c1=O", "human adenosine A3 receptor (Homo sapiens, UniProt P0DMS8)", 7.7],
  ["CCc1ccc(Cn2c(=O)n(CC3CC3)c(=O)c3c2nc2cc(OC)ccn23)cc1", "human adenosine A3 receptor (Homo sapiens, UniProt P0DMS8)", 9.2],
  ["C=CCn1c(=O)c2c(nc3cc(OC)ccn32)n(Cc2ccccc2)c1=O", "human adenosine A3 receptor (Homo sapiens, UniProt P0DMS8)", 8.3],
  ["CCCCCCn1c(=O)c2c(nc3cc(OC)ccn32)n(Cc2ccccc2)c1=O", "human adenosine A3 receptor (Homo sapiens, UniProt P0DMS8)", 8.6]
]}
